Tested on: IGROV1 ovarian
Assay: NCI tumour cell line growth inhibition, 48 h
readout-label: TGI

Example entries and their recorded answers appear below.
{"compound": "N#CSCC(Cl)=CCl (mixture of isomers)", "TGI": "> 100 µM"}
{"compound": "CCC[CH2][Sn]([CH2]CCC)([O]C(=O)CN)[O]C(=O)CN", "TGI": "> 100 µM"}
{"compound": "CC1(C)OCN(c2ccc(N3CCOCC3)cc2)Cn2c1nc1ccccc12", "TGI": "> 100 µM"}
{"compound": "O=C1C2=Cc3ccccc3OC2(O)Oc2cc3ccccc3cc21 (stereo unspecified)", "TGI": "> 100 µM"}
{"compound": "COc1ccc(C(C#N)NC23CC4CC(CC(C4)C2)C3)cc1 (stereo unspecified)", "TGI": "> 100 µM"}

Then this compound:
Look up TGI for this compound: CC(C)(C)C1CCC(=O)/C(=C/CC2CC(=O)N(c3ccccc3)C(=O)C2)C1 (stereo unspecified) 44.5 µM

* * *

Test system: TK-10 renal
Test: NCI tumour cell line growth inhibition, 48 h; in the data active = GI50 below about 0.43 µM; inactive = the rest
Output constraint: value belongs to 1 for active, 0 for inactive

Returns: the outcome recorded for "CC1(C)N=C(N)N=C(N)N1c1ccc(CCC(=O)Nc2ccc(S(=O)(=O)F)cc2)c(Cl)c1" in this assay. 0

What did the test return for "C[C@]12CCc3sc(Nc4ccc(OC(F)(F)F)cc4)nc3C1=CC[C@@H]1[C@@H]2CC[C@]2(C)C(=O)CC[C@@H]12" ? 0

What is the recorded call for this molecule in the test? "CC/C=C\C[C@H]1CC=C2C(=O)C=C[C@@H]2CC=CCCCC(=O)O[C@@H](CCCCC)CC=C2C(=O)C=C[C@@H]2CC=CCCCC(=O)O[C@@H](CCCCC)CC=C2C(=O)C=C[C@@H]2CC=CCCCC(=O)O[C@@H](CCCCC)CC=C2C(=O)C=C[C@@H]2CC=CCCCC(=O)O1" 0

Which outcome did this test record for the molecule "CCN1C(=O)/C(=C/c2c(Cl)[nH]c3cc(C)c(OC)cc23)c2ccccc21" ? 0

How was "CN(C)C/C=C/C(=O)Nc1ccc(C(=O)N[C@@]2(C)CCC[C@@H](Nc3ncc(Cl)c(-c4c[nH]c5ccccc45)n3)C2)nc1" classified in this test? 1

Short answer needed: outcome of this test for "CCCOC(=O)N[C@H]1CCc2c(Cl)c(OC)c(OC)c(OC)c2-c2ccc(SC)c(=O)cc21" ? 0

Outcome? "Nc1ncc(-c2cnn(C3CCNCC3)c2)cc1-c1nc2cc(Cl)ccc2o1" 0

Kindly provide the recorded test outcome for the following molecule: C#CC1(O)C(COP(=O)(O)OCC(COP(=O)(O)OCC2OC(n3cc(F)c(=O)[nH]c3=O)CC2O)OCCCCCCCCCCCCCCCCCC)OC(n2ccc(N)nc2=O)C1O (stereo not drawn) 1

Given CCCC(C)c1ccc(OCCCCCCN2CCNCC2)cc1 (stereo not drawn) , state the outcome it received in this test. 0

Write down the call the test reported for this molecule. Item: "Cn1c(Cl)c(/C=C2/C(=O)Nc3ccccc32)c2ccccc21" 0

* * *

Test system: MDA-MB-231 breast
Assay: NCI tumour cell line growth inhibition, 48 h
readout-label: TGI

{"compound": "CS(=O)(=O)Nc1ccc2ccccc2c1-c1c(NS(C)(=O)=O)ccc2ccccc12", "assayed-system": "MDA-MB-231 breast", "TGI": "> 25 µM"}

Reported TGI for COc1ccc(C(C#N)NC23CC4CC(CC(C4)C2)C3)cc1 (configuration not stated) : what is it? > 100 µM

Return reported TGI; argument: "COc1cc2c(cc1OCCCCCCCCCCN1C(=O)c3cccc4cccc(c34)C1=O)N=C[C@@H]1CCCN1C2=O" 20.4 µM

Which TGI reading was recorded for the compound "Nc1ccccc1CCN1CCN(CCCc2ccccc2)CC1" ? > 100 µM

TGI lookup needed for "C=C(C)[C@@H]1CC[C@]2(COCCCN)CC[C@]3(C)[C@H](CC[C@@H]4[C@@](C)(CCCNCCCN)[C@H](C(=C)C)CC[C@]43C)[C@@H]12" , thanks. 3.29 µM

Item "Cc1ccc(-n2[nH]nc(C(N)=O)c2=O)cc1" has what recorded TGI? > 100 µM

Consider the compound shown here: COc1ccc2c(c1)CN1C(=N2)CSC1c1cccc(Br)c1 (configuration not stated) What is its recorded TGI? > 100 µM

Report TGI for "O=C1C(=O)c2ccccc2C(O)=C1C(C1=C(O)c2ccccc2C(=O)C1=O)c1ccc(Cl)cc1" please. 22.7 µM

Item under review: "N#Cc1ccc(-c2nc3c(N)ncnc3o2)cc1" . Reported TGI? > 100 µM

Reported TGI, compound "CCCCC1(NN=C2CCCCC2)C(=O)N(c2ccccc2)N(c2ccccc2)C1=O" : ____ > 100 µM

* * *

System: SN12C renal
Test: NCI tumour cell line growth inhibition, 48 h
readout-label: TGI

Example entries and their recorded answers appear below.
{"compound": "C#CC1(O)C(COP(=O)(O)OCC(COP(=O)(O)OCC2OC(n3cc(F)c(=O)[nH]c3=O)CC2O)OCCCCCCCCCCCCCCCCCC)OC(n2ccc(N)nc2=O)C1O (centres undefined)", "TGI": "1.93 µM"}
{"compound": "O=S(Cc1ccccc1)c1nc2ccccc2nc1-c1cccs1 (centres undefined)", "TGI": "28.1 µM"}
{"compound": "CNC1(c2cc3ccccc3s2)CCCCC1", "TGI": "> 100 µM"}
{"compound": "CCOC(=O)CCC(NC(=O)c1ccc(Nc2nc3ccc(C(F)(F)F)cc3nc2-c2ccccc2)cc1)C(=O)OCC (centres undefined)", "TGI": "> 100 µM"}
{"compound": "COc1ccc(-c2c(C(C)=O)c(-c3ccccc3)n(C3OC(CO)C(O)C(O)C3O)c(=S)c2C#N)cc1 (centres undefined)", "TGI": "> 100 µM"}

Need TGI of "COc1cc(NS(=O)(=O)c2ccc(C)cc2)c2nccnc2c1" , thanks. > 100 µM

* * *

System: DU-145 prostate
Assay: NCI tumour cell line growth inhibition, 48 h
Quick reference for TGI among some molecules

Look over these answered cases.
{"molecule": "O=C1/C(=C\\c2ccc([N+](=O)[O-])cc2)N(S(=O)(=O)c2ccccc2)c2ncccc21", "TGI": "75.4 µM"}
{"molecule": "C/C(=N\\NS(=O)(=O)c1ccc(C)cc1)c1ccccn1", "TGI": "> 100 µM"}
{"molecule": "O=C(O)CO[C@@]12C#C/C=C\\C#C[C@@H]3N(C(=O)Oc4ccccc4)c4ccccc4[C@]14O[C@@]34CCC2", "TGI": "> 100 µM"}
{"molecule": "CC(=O)SCCC(NC(=S)Nc1ccccc1)P(=O)(Oc1ccccc1)Oc1ccccc1 (centres undefined)", "TGI": "> 100 µM"}
{"molecule": "CC(C)CCNC(=O)c1ccc(CNC(=O)/C=C/c2cccc(Oc3ccccc3)c2)cc1", "TGI": "> 100 µM"}
{"molecule": "Cc1ccc2c(ccc(/C=C/c3ccc(O)c4ncccc34)[n+]2C)c1", "TGI": "> 57.3 µM"}

Lab request: please report TGI under test system DU-145 prostate for "COc1c(=O)cc2cc[nH]c3cc[nH]c1c23" > 100 µM

Item "NC(=Nc1ccccc1Cl)c1ccccc1N" with DU-145 prostate - TGI? > 100 µM

# query: TGI | item C#CC1(O)C(COP(=O)(O)OCC(COP(=O)(O)OCC2OC(n3cc(F)c(=O)[nH]c3=O)CC2O)OCCCCCCCCCCCCCCCCCC)OC(n2ccc(N)nc2=O)C1O (centres undefined) | system: DU-145 prostate > 71.9 µM

* * *

Tested on: DU-145 prostate
Experiment: NCI tumour cell line growth inhibition, 48 h
readout-label: TGI

Request body: readout TGI, system DU-145 prostate, query NC(CSC(c1ccccc1)(c1ccccc1)c1ccccc1)C(=O)NCC(=O)O (stereo unspecified) . Return the value. > 100 µM

State its TGI on DU-145 prostate: O=C1CS(=O)(=O)C(c2cccc(Oc3ccccc3)c2)N1c1ccc(Cl)cc1 (stereo unspecified) > 100 µM

Which TGI is reported with DU-145 prostate for this entry: N#Cc1c(-c2ccc(Cl)cc2)c2c(n(C3OC(CO)C(O)C(O)C3O)c1=S)CCCC2 (stereo unspecified) ? > 100 µM

I'm curious: which TGI was measured for "CCN1C(=O)/C(=C/c2c(Cl)[nH]c3cc(C)c(OC)cc23)c2ccccc21" tested on DU-145 prostate? > 100 µM

Request - read-out TGI | tested on DU-145 prostate | molecule C=C(C)C1CCC(C(=O)O)CC1 (stereo unspecified) > 100 µM

GET /values?readout=TGI&system=DU-145 prostate&item= "COc1ccc(Cn2c(=O)c(OC)c(C)c3cc4ccccc4cc32)cc1" > 100 µM

API: value(readout=TGI, system=DU-145 prostate) for record "C=C(C)[C@@H]1CC[C@]2(COCCCN)CC[C@]3(C)[C@H](CC[C@@H]4[C@@](C)(CCCNCCCN)[C@H](C(=C)C)CC[C@]43C)[C@@H]12" 3.43 µM
